Recorded Percent Blocking of Ang-2FD Binding to Tie-2 by entry
- TESTED TARGET: T1, Dimeric fibrinogen-like domain of monkey (Macca fascicularis) Ang-2 conjugated to human IgG1 (monkey (Macca fascicularis))
- T1 construct: also called Dimeric Monkey Ang-2FD; Monkey Ang-2FD-hFc
- T1 sequence (chain, as listed by the source limits assumed): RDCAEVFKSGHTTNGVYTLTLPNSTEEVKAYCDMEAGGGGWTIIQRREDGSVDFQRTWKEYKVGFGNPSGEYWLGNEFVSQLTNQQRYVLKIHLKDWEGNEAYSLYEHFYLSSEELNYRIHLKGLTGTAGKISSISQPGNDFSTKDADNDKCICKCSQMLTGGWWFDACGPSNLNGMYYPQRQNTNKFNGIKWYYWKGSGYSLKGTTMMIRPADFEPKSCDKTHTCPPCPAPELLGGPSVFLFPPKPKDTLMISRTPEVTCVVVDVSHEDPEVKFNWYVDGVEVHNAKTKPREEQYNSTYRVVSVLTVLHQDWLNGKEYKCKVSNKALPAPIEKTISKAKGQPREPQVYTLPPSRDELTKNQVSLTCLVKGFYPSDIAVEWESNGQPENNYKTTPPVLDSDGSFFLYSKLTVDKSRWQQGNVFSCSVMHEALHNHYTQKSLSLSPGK
- METHOD DESCRIPTION: blocking ELISA, 16.67 nM antibody, coated hTie-2-mFc
MEASURED ATTRIBUTE: Percent Blocking of Ang-2FD Binding to Tie-2

BINDER	ENDPOINT VALUE
H2M749N (antibody, V domains shown, Hybridoma-derived chimeric antibody, mouse constant domains; also called H1M749N; H1M749) VH: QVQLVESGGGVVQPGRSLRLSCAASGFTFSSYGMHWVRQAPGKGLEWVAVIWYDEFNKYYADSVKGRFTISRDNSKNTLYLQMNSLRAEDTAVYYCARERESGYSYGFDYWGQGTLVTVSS VL: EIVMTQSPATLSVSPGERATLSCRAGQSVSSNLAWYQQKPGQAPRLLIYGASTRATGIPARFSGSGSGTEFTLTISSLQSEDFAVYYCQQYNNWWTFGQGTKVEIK	97.4%
H1M728N (antibody, V domains shown) VH: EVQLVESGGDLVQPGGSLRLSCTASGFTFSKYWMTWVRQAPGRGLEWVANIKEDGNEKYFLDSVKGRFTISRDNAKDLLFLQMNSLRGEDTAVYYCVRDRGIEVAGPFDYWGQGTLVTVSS VL: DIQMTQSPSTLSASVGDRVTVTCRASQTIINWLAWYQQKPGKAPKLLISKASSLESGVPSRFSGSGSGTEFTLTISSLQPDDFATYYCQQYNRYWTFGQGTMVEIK	97.1%
H2M742N (antibody, V domains shown) VH: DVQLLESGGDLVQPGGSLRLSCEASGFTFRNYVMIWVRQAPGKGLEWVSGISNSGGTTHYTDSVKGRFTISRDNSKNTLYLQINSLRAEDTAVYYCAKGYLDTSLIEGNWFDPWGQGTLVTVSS VL: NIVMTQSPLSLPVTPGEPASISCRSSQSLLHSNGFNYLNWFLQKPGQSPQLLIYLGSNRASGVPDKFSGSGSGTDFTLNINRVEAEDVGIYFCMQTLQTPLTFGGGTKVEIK	94.1%
H1M724N (antibody, V domains shown) VH: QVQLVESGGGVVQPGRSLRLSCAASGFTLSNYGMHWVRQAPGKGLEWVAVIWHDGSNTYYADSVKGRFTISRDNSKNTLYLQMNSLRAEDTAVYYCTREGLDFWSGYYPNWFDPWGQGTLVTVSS VL: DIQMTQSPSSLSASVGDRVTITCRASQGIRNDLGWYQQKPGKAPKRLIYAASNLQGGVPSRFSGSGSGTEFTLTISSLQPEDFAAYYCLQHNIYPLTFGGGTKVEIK	95.2%
H2M750N (antibody, V domains shown) VH: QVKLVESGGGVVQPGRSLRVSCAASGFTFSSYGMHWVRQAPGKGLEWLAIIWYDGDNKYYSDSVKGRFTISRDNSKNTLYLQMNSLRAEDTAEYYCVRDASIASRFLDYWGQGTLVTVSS VL: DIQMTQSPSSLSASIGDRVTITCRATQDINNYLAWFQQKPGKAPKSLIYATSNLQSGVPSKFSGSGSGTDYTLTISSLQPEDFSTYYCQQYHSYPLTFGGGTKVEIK	97.4%

Reference for the values: patent US20150147342A1
